# System: EPHA2;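 further: KINOMEscan kinase panel screen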
# assay-context: concentration: 1 μM, replicates: in singlicate; n = 1
Parameter %Inh: see the listing below.
value-kind: %Inh (%)

Cc1ccc(NC(=O)c2ccnc(N3CCCCC3)c2)cc1-c1ccc(C(=O)NCC2CC2)cc1 [GW775610] :: 5
Cc1cccc(Nc2nc(N[C@H]3CCCC[C@H]3N)ncc2C(N)=O)c1.Cl [GSK986310] :: 11
COc1cc(Nc2ccnc3cc(-c4ccncc4)ccc23)cc(OC)c1OC.Cl [GW494610] :: 83
CC(C)(C)c1ccc(C(=O)Nc2cn3cc(-n4ccnc4)ccc3n2)cc1 :: 0
Cn1cc(-c2ccc3c(c2)CCN3C(=O)Cc2cc(F)cc(F)c2F)c2c(N)ncnc21 [GSK2634140] :: 9
CC(C)c1nc(-c2ccc(F)c(NS(=O)(=O)c3c(F)cccc3F)c2)c(-c2ccnc(Nc3ccc(N4CCOCC4)nc3)n2)s1 [GSK1804250] :: 17
CN(c1ccc(NC(=O)Nc2cccc(Cl)c2)cc1)c1ccnc(N)n1.Cl [GW830707] :: 18
Cc1ccc(C)c(NC(=O)Nc2ccc(C)c(-c3ccc(C(=O)Nc4ccncc4)cc3)c2)c1 [GSK1398473] :: 19

Provenance of the data: paper PMC5540273
